Target: SARS-CoV-2 PL^pro (Severe acute respiratory syndrome coronavirus 2)
Test: biochemical
Type: biochemical
Each entry below lists one item and its recorded IC50 value.
quantity kind: IC50

C[C@H](c1ccc(Cl)cc1)N(C)Cc1cc(O)ccc1Cl [Jun9-13-4] = > 20 µM
CCN(Cc1cc(O)ccc1Cl)c1cccc(C)c1C [Jun9-13-5] = > 20 µM
COc1ccc(Cl)c(CN(C)[C@H](C)c2cccc3ccccc23)c1 [Jun9-26-5] = > 20 µM

###

Each entry below lists one item and its recorded CC50 value.
Experiment: in vitro
Settings: African green monkey
quantity kind: CC50

Cc1cc(O)ccc1CN(C)[C@H](C)c1cccc2ccccc12 [Jun9-87-2] = 61 µM
C[C@H](c1cccc2ccccc12)N(C)Cc1ccc(O)cc1Cl [Jun9-87-3] = 26 µM

###

Tested on: SARS-CoV-2
Assay: SARS-CoV-2 antiviral assay in Caco2-hACE2 cells
Format: cell-based
Conditions: Severe acute respiratory syndrome coronavirus 2
pEC50: −log10 of the molar value.
Each entry below lists one item and its recorded pEC50 value.
quantity kind: pEC50

Cc1ccc(N)cc1CN(C)[C@H](C)c1cccc2ccccc12 = 5.05
Cc1ccc(N)cc1C(=O)N[C@H](C)c1cccc2ccccc12 [GRL0617, reference compound] = 4.60
C[C@H](c1cccc2ccccc12)N(C)Cc1ccc(O)cc1 = 5.08

###

Assay: Cytotoxicity in Calu-3 cells
Settings: human
quantity kind: CC50

C[C@H](c1cccc2ccccc12)N(C)Cc1ccc(O)cc1 [Jun9-44-3] = 27.7 µM

###

Each entry below lists one item and its recorded pIC50 value.
Target: SARS-CoV-2 PL^pro (Severe acute respiratory syndrome coronavirus 2)
Experiment: biochemical
Type: biochemical
Settings: FRET assay; read-out: SARS-CoV-2 PL^pro IC50
pIC50: −log10 of the molar value.
quantity kind: pIC50

Cc1ccc(O)cc1C(=O)N[C@H](C)c1cccc2ccccc12 = 5.61
C[C@H](c1cccc2ccccc12)N(C)Cc1cnc(N)cc1N = 5.25
CC(c1cccc(O)c1)N(C)Cc1cc(O)ccc1Cl (centres unmarked) = 4.57

###

Each entry below lists one item and its recorded IC50 value.
Biological target: SARS-CoV-2 PL^pro (Severe acute respiratory syndrome coronavirus 2)
Test: biochemical
Type: biochemical
Settings: FRET assay; read-out: SARS-CoV-2 PL^pro IC50
quantity kind: IC50

C[C@@H](NC(=O)c1cc(O)ccc1Cl)c1cccc2ccccc12 [Jun9-47-2] = 6.72 µM
C[C@H](c1cccc2ccccc12)N(C)Cc1cccnc1 [ZX-136-2] = 9.29 µM
Cc1ccc(C(C)N(C)Cc2cc(O)ccc2Cl)cc1 (centres unmarked) [Jun9-13-8] = 71.8 µM
C[C@H](c1cccc2ccccc12)N(C)Cc1cc(O)ccc1Cl [Jun9-28-6] = 2.66 µM
C[C@H](c1cccc2ccccc12)N(C)Cc1cnn(C)c1 [ZX-136-3] = 10.1 µM

###

Biological target: SARS-CoV-2 PL^pro (Severe acute respiratory syndrome coronavirus 2, UniProt P0DTD1)
Assay: biochemical
Format: biochemical
pIC50: −log10 of the molar value.
Each entry below lists one item and its recorded pIC50 value.
quantity kind: pIC50

C[C@H](c1cccc2ccccc12)N(C)Cc1cnccn1 = < 4.70
CN(Cc1cc(O)ccc1Cl)Cc1c(Cl)cccc1Cl = < 4.70
CC(C1CCCCC1)N(C)Cc1cc(O)ccc1Cl (stereo not shown) = < 4.70
C[C@H](c1cccc2ccccc12)N(C)Cc1ccnc(O)c1 = < 4.70
CC1CCCCC1N(C)Cc1cc(O)ccc1Cl (stereo not shown) = < 4.70
C[C@H](c1cccc2ccccc12)N(C)Cc1n[nH]c2cccc(O)c12 = < 4.70
C[C@H](c1cccc2ccccc12)N(C)Cc1ccc(-n2cccc2)cc1 = < 4.70
Cc1ccccc1CN(C)Cc1cc(O)ccc1Cl = < 4.70
Oc1ccc(Cl)c(CN2CCc3ccccc3C2)c1 = < 4.70
CC(C)c1ccccc1N(C)Cc1cc(O)ccc1Cl = < 4.70
